Attribution: PubChem BioAssay (NCI)

Tested on: SK-MEL-2 melanoma
Assay: NCI-60 one-dose screen, 48 h
Conditions: 10 µM unless noted
About 83,000 compounds went through this panel and 20% of them were active in at least one assay; those are over-represented in the sample as a whole. Calls of active or inactive are those of the source. How the source made its calls: active means growth percent below 10; inactive means the rest.
Field 'call' accepts yes (1) (active), no (0) (inactive)

Solved entries:
| molecule | classification |
| --- | --- |
| COC(=O)c1cc(C(=O)C(Br)Br)n2c1ccc1c3ccccc3ccc12 | no (0) |
| CCCCCCCCc1ccc(C(=O)Nc2cccc(O)c2)cc1 | no (0) |
| Cc1ccc(C2CC(c3ccc(S(=O)(=O)NCCNc4nc(N(C)C)nc(N5CCOCC5)n4)cc3)=Nc3c(N)nc(N)nc3N2)cc1 (stereo not given) | no (0) |
| CN(C)C(=O)c1cc(-c2ccc3ncnc(N4CCc5cc(F)c(Cl)cc54)c3c2)cnc1N | yes (1) |
| NS(=O)(=O)c1ccc(Nc2nc(SCC(=O)c3ccc(F)cc3)nc3ccccc23)cc1 | no (0) |

input: Could you please tell me the result logged for `N#Cc1cc(-c2ccnc(Nc3ccc(N4CCN(C5COC5)CC4)cc3)n2)ccc1N1CCCC1` in this assay?
output: no (0)

input: What do we get for `O=Cc1cncc(-c2ccc3ncnc(N4CCc5cc(F)c(Cl)cc54)c3c2)c1` ?
output: no (0)

input: Okay, and `COc1ccc(N=Nc2c(N)nn3c(-c4cc5ccccc5oc4=O)ccnc23)cc1` ?
output: no (0)

input: Another molecule to check: ClC(Cn1ncc2c(Nc3cccc(Br)c3)nc(SCCN3CCOCC3)nc21)c1ccc(Br)cc1 (stereo not given)
output: yes (1)

input: Can you check `COc1ccc(NC(=O)CSc2nnc(-c3ccc(-c4nc5ccccc5[nH]4)cc3)o2)cc1` next?
output: no (0)

====

Tested on: SK-MEL-2 melanoma
Assay: NCI-60 one-dose screen, 48 h
Settings: 10 µM unless noted
This is part of a sample that, as a whole, favours compounds with a hit. Of some 83,000 tested, about 20% had one in any assay. Calls of active or inactive are those of the source. The calls were made as follows: active = growth percent below 10; inactive = the rest.
A correct response names exactly one class from 1 (active), 0 (inactive)

| compound | classification |
| --- | --- |
| Cn1cc(-c2cc(N)n3nc(-c4c[nH]c5ccccc45)cc3n2)c2ccccc21 | 1 |
| N#CC1=C(c2cccs2)Nc2c(c(-c3ccccc3)nn2-c2ccccc2)C12C(=O)Nc1ccc(Cl)cc12 (stereo not given) | 0 |
| O=C(Nc1ccc(Br)cc1)Nc1ccc(-c2ccc3c(c2)NC(=O)/C3=C\c2ccc[nH]2)cc1 | 0 |
| CCOC(=O)/C(F)=C/C1CC1C(c1ccccc1)c1ccccc1 (stereo not given) | 0 |

input: Entry `COc1cc(/C=N/NC(=O)c2ccc(OCc3nc4ccc(Cl)cc4[nH]3)cc2)cc(OC)c1OC` : call = ?
output: 0

====

Test system: OVCAR-4 ovarian
Experiment: NCI-60 one-dose screen, 48 h (100 = growth as untreated, 0 = no growth, -100 = all killed)
Conditions: 10 µM unless noted
Method: Growth inhibition of the OVCAR-4 human tumor cell line is measured as a screen for anti-cancer activity. Cells are grown in 96 well plates and exposed to the test compound for 48 hours. Compounds are tested at a single concentration, which is 10^-5 M for most compounds. The reported endpoint is percent growth (GI% or GIPRCNT), where numbers from 0 - 100% represent growth inhibition, and numbers from -100% - 0 represent cell death. For example, a value of 40 represents 60% growth inhibition. […]
The panel holds about 83,000 compounds, 20% with a hit somewhere; the sample as a whole holds those more often.
result_type: growth (%)
# unit: % | format: bare number

Check out these entries, answers already filled in.
| compound | target_entity | unit_symbol | numeric_result |
| --- | --- | --- | --- |
| Cc1ccc(/C=C/C(=O)c2ccc(S(=O)(=O)NCCNc3nc(N(C)C)nc(N4CCOCC4)n3)cc2)cc1 | OVCAR-4 ovarian | % | 91.6 |
| CCC1(OC(=O)c2ccccc2SSCCOC(=O)CCCCC2SCC3NC(=O)NC32)C(=O)OCc2c1cc1n(c2=O)Cc2cc3ccccc3nc2-1 (stereo not drawn) | OVCAR-4 ovarian | % | 66 |
| CN(C)C(=O)c1cc(-c2ccc3ncnc(N4CCc5cc(F)c(Cl)cc54)c3c2)cnc1N | OVCAR-4 ovarian | % | -17.5 |

Pending compound:
input: Write down the reported growth of `COc1c(B(O)O)cc(F)cc1-c1nc2ccc3[nH]ncc3c2c2c1COCC2` , test system: OVCAR-4 ovarian.
output: 102

====

Test system: UACC-257 melanoma
Experiment: NCI-60 one-dose screen, 48 h (100 = growth as untreated, 0 = no growth, -100 = all killed)
Details: 10 µM unless noted
Procedure: Cells are grown in 96 well plates and exposed to the test compound for 48 hours. Compounds are tested at a single concentration, which is 10^-5 M for most compounds. The reported endpoint is percent growth (GI% or GIPRCNT), where numbers from 0 - 100% represent growth inhibition, and numbers from -100% - 0 represent cell death. For example, a value of 40 represents 60% growth inhibition. A value of 0 means no net growth occurred over the course of the experiment. […]
About 83,000 compounds went through this panel and 20% of them were active in at least one assay; those are over-represented in the sample as a whole. Active and inactive are the calls of the source. The calls were made as follows: active = growth percent below 10; inactive = the rest.
result_type: growth

Below, each entry is followed by its recorded growth result.
| entry_smiles | growth |
| --- | --- |
| O=C1Nc2cc(-c3ccc(NS(=O)(=O)c4ccc(C(F)(F)F)cc4)cc3)ccc2/C1=C/c1ccc[nH]1 | 26.3% (inactive) |
| COc1ccc(Nc2ncnc3sc4c(c23)CCN(Cc2ccccc2)C4)cc1 | 94.6% (inactive) |
| O=CNc1cccc(-n2cnc3cc(-c4ccc(O)cc4)ccc32)c1 | 84.7% (inactive) |
| COc1ccc(-c2nc3ccc(-c4nnc(SCc5ccccc5)o4)cc3[nH]2)cc1 | 21.8% (inactive) |

# context switch: different molecule, same growth
input: Item under review: `O=C(NNC(=O)c1ccc(OCc2nc3ccc(Cl)cc3[nH]2)cc1)Nc1ccc(Cl)c(Cl)c1` . Reported growth?
output: 95.6% (inactive)

====

Test system: HCT-116 colon
Test: NCI-60 one-dose screen, 48 h
Settings: 10 µM unless noted
About 83,000 compounds went through this panel and 20% of them were active in at least one assay; those are over-represented in the sample as a whole. Active and inactive are the calls of the source. How the source made its calls: active means growth percent below 10; inactive means the rest.
Your answer must be one of the following: active, inactive

Worked examples, 8 molecules total:
| molecule | target_entity | classification |
| --- | --- | --- |
| O=C1CC(c2ccc(I)cc2)OC2C=Cc3ccccc3C12 (stereo unspecified) | HCT-116 colon | inactive |
| CCN1C(=O)N(CC)C2NNC(Sc3c(C(=O)O)c4ccccc4n(CC(C)C)c3=O)=NC21 (stereo unspecified) | HCT-116 colon | active |
| COc1cc(CNC(=O)C[C@H](C)CCC=C(C)C)ccc1OCc1cn(-c2ccc(Br)cc2)nn1 | HCT-116 colon | inactive |
| COc1ccc(-c2cc(C(=O)N=Nc3c(O)[nH]c4ccc(Cl)cc34)c3ccccc3n2)cc1 | HCT-116 colon | inactive |
| Cc1ccc(C(C)C)cc1Oc1cccc(-c2c(-c3ccc(C(F)(F)F)cc3)ncn2C2CCNCC2)n1 | HCT-116 colon | active |
| COc1ccc(N=Nc2c(N)nn3c(-c4cc5ccccc5oc4=O)ccnc23)cc1 | HCT-116 colon | inactive |
| O=C(NNC(=S)NC(=O)c1ccccc1)c1ccc(OCc2nc3ccc(Cl)cc3[nH]2)cc1 | HCT-116 colon | active |
| COc1cccc(NC(=O)c2ccc(NC(=O)CCl)s2)c1 | HCT-116 colon | active |

input: What was the test verdict on `N#Cc1cc(-c2ccc3ncnc(N4CCc5cc(F)c(Cl)cc54)c3c2)cnc1N` ?
output: inactive

input: Next record, please: `Cn1cc(-c2cc3nc(-c4c[nH]c5ccccc45)cc(N)n3n2)c2ccccc21`
output: active

====

This listing pairs molecules with measured growth.
Test system: HT29 colon
Assay: NCI-60 one-dose screen, 48 h (100 = growth as untreated, 0 = no growth, -100 = all killed)
Conditions: 10 µM unless noted
Compounds without any hit were thinned out: in the full panel of roughly 83,000, 20% have a hit.
State the answer as a number, implicitly in %.

# example entries with known answers
| molecule | target_entity | growth (%) |
| --- | --- | --- |
| CCCCCCCCc1ccc(C(=O)Nc2cccc(O)c2)cc1 | HT29 colon | 78.7 |
| O=C(N/N=C/c1c[nH]c2ccccc12)Nc1ccc(F)c(Cl)c1 | HT29 colon | 33.5 |
| O=C(CSc1nnc(-c2ccc(-c3nc4ccccc4[nH]3)cc2)o1)Nc1ccccc1 | HT29 colon | 70.7 |
| Cn1cc(-c2cc(N)n3nc(-c4c[nH]c5ccc(F)cc45)cc3n2)c2cccnc21 | HT29 colon | -70.1 |
| Cc1nc(N)ncc1-c1ccc2ncnc(N3CCc4cc(F)c(Cl)cc43)c2c1 | HT29 colon | 67.2 |
| COc1ccc(OC)c(Cn2cc(C#N)c(N)c2C(=O)c2ccc(Br)cc2)c1 | HT29 colon | 4.97 |

input: API: value(readout= growth, system= HT29 colon, query= `O=C(CSc1nc2sc3c(c2c(=O)n1-c1ccc(Cl)cc1)CCCC3)NNC(=O)c1ccc(F)cc1` )
output: 107

input: Same read-out for `O=C1Nc2cc(-c3ccc(NS(=O)(=O)c4ccc(-c5ccccc5)cc4)cc3)ccc2/C1=C/c1ccc[nH]1` ?
output: 0.595

input: Another: Cc1ccc(C2CC(c3ccc(NC(=O)Nc4ccccc4)cc3)=NN2c2ccc(S(N)(=O)=O)cc2)cc1 (stereo not given)
output: -62

input: Next entry: `Cc1ccc(NC(=O)N/N=C/c2c[nH]c3ccccc23)c(C)c1`
output: -35.4
